tested on: MOLT-4; assay: NCI tumour cell line growth inhibition, 48 h
Activity calls are given as the source filed them. Rule as the data show it: active = GI50 up to about 1.1 µM and inactive = higher.
# output must be one of active, inactive

Query: Name the outcome recorded for CC(OC(C)(C)C)[C@H](NC(=O)OCC(Cl)(Cl)Cl)C(=O)O (stereo partly specified) in the assay.
Response: inactive

Query: // return assay outcome for COc1cc(CNc2nc3ccccc3nc2C(=O)O)cc(OC)c1OC
Response: inactive

Query: Per the assay record, what outcome was assigned to CN(C)C(=O)C1CCN(Cc2c[nH]c3ccccc23)CC1 ?
Response: inactive

---

system: SNB-19; assay: NCI tumour cell line growth inhibition, 48 h
The source made the active and inactive calls. Rule as the data show it: active = GI50 up to about 1.1 µM and inactive = higher.
Listed below: GI50 values for each entry.

# compound, subject_of_test, property_name, result
rows = [
    ("CC(=O)OCC1OC(OCCCCCCO)C(OC(C)=O)C(OC(C)=O)C1OC(C)=O (centres undefined)", "SNB-19", "GI50", "> 100 µM (inactive)"),
    ("COc1ccc(C(=O)CC2=Nc3nnc(CCCCCCCc4nnc5n4C(=O)C(CC(=O)c4ccc(OC)cc4)=N5)n3C2=O)cc1", "SNB-19", "GI50", "> 100 µM (inactive)"),
    ("CC(=O)C(C(=O)C(C)(C)C)C(=O)C(C)(C)C", "SNB-19", "GI50", "> 100 µM (inactive)"),
]

Now consider the entry below.
Entry O=C1N(CN2CCOCC2)CN(CN2CCOCC2)C(=O)N1Cc1ccc(-c2ccc(CN3C(=O)N(CN4CCOCC4)CN(CN4CCOCC4)C3=O)cc2)cc1 : GI50 on SNB-19 = 10.3 µM (inactive)
